Value source: the RNAGym collection of RNA variant scans (doi:10.1093/nar/gkz1192)

B1: CPEB3 Ribozyme (parent)
chain: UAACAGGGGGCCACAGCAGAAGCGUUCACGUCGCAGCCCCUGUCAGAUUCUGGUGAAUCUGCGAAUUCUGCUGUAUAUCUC

Variants of: B1
Assay: self-cleavage, relative activity (ratio to wild type); higher = more cleavage; in vitro, sequencing
Decision: self-cleavage >= 0.2 yields Criterion met, all other cases yield Criterion not met.

# mutations, category-label
records = [
    ("U54G U72C", "Criterion met"),
    ("U58A A64G", "Criterion met"),
    ("G53U A64G", "Criterion met"),
    ("U26C U66C", "Criterion met"),
    ("A15G C17A", "Criterion met"),
]

Kindly determine if self-cleavage recorded for A2G U58C is above or exactly 0.2.
Criterion met

Does A2G G6U have a reported self-cleavage of at least 0.2?
Criterion met

Does the reported self-cleavage for A2U A20C fall at or above the 0.2 mark?
Criterion met

Has A65C U74C a recorded self-cleavage greater than or equal to 0.2?
Criterion met

Threshold query (self-cleavage >= 0.2) on A15U A57U
Criterion not met

For this variant, is measured self-cleavage 0.2 or higher? A47U U58C
Criterion met

Answer whether self-cleavage of C4G U31C is greater than or equal to 0.2.
Criterion met
